Numbers sourced from patent US20250019402A1.

Target: T1, human cholecystokinin-2 receptor (CCK2R) (human, UniProt P32239 1-447)
T1 sequence (looked up): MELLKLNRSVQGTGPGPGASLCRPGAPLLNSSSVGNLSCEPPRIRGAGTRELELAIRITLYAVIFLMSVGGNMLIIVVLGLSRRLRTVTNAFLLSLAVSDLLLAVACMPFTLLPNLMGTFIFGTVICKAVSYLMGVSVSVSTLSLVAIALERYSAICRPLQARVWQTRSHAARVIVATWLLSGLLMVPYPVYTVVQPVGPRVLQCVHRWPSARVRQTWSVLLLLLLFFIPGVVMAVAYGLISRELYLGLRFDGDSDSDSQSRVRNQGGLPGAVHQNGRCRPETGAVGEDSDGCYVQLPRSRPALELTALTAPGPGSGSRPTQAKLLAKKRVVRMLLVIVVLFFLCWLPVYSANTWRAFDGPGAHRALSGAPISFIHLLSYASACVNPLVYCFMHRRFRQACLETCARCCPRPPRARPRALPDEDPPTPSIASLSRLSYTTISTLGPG
Test: cell-based or functional assay
[ ]: non-standard residue; d: D form. The star is where a group is joined. DOTA = O=C(O)CN1CCN(CC(=O)O)CCN(CC(=O)*)CCN(CC(=O)O)CC1; 1Nal = N[C@@H](Cc1cccc2ccccc12)C(=O)O; 2Nal = N[C@@H](Cc1ccc2ccccc2c1)C(=O)O; NMeNle = CCCC[C@H](NC)C(=O)O; HYNIC = NNc1ccc(C(=O)*)cn1
READOUT: cell uptake after 2 h incubation on A431-CCK2R cells (% of total activity)

binder="{DOTA}-[dE]AYGW[NMeNle]D[1Nal]-NH2 (also: DOTA coordinating 111In) [^111In-DOTA-MGS5]" observed=68%
binder="{DOTA}-[dE]AYGW[NMeNle]D[1Nal]-NH2 (also: DOTA coordinating 177Lu) [^177Lu-DOTA-MGS5]" observed=63%
binder="{DOTA}-[dE]AYGW[NMeNle]D[2Nal]-NH2 (also: DOTA coordinating 111In) [^111In-DOTA-MGS5-2]" observed=45%
binder="{DOTA}-[dE][dE][dE][dE][dE][dE]AYGWMDF-NH2 (also: DOTA coordinating 177Lu) [^177Lu-PP-F11]" observed="< 30%"
binder="{DOTA}-[dK]AYGW[NMeNle]D[1Nal]-NH2 (also: DOTA coordinating 111In) [^111In-DOTA-MGS9]" observed=37%
binder="{DOTA}-[dE]AYGW[NMeNle]D[1Nal]-NH2 (also: DOTA coordinating 68Ga) [^68Ga-DOTA-MGS5]" observed=54%
binder="{HYNIC}-[dE]AYGW[NMeNle]D[1Nal]-NH2 (also: HYNIC coordinating 99mTc, co-ligand not given here) [^99mTc-HYNIC-MGS5]" observed=63%
